Origin of measurements: PubChem BioAssay (NCI)

Test system: EKVX NSCLC
Test: NCI tumour cell line growth inhibition, 48 h
experimental_readout: TGI

- compound: "CC(C)[C@H](COC(C)(C)C)N=CN1CSc2ccccc21"
  result: "> 100 µM"
- compound: "Cc1nnc2sc(-c3ccc(N)cc3)nn12"
  result: "> 100 µM"
- compound: "CC(C)NCCCNC1=C(Cl)C(=O)c2ccccc2C1=O"
  result: "2.83 µM"
- compound: "COC(=O)[C@@H]1C[C@H]2[C@H](c3ccccc3Br)[C@@H](OC(C)=O)[C@@H](OCc3ccccc3)ON2O1"
  result: "> 100 µM"
- compound: "O=c1oc2ccccc2c(O)c1C(c1ccc([N+](=O)[O-])cc1)c1c(O)c2ccccc2oc1=O"
  result: "> 100 µM"
- compound: "CO/N=C(\\COc1ccc2c(=O)cc(-c3ccccc3)oc2c1)c1ccc(OC)cc1"
  result: "> 100 µM"
- compound: "COc1ccc(/C=C/c2cc(=O)cc(/C=C/c3ccc(OC)c(O)c3)o2)cc1O"
  result: "13.3 µM"
- compound: "C=C(C)[C@@H]1CC[C@]2(C)[C@H](CC=C3[C@@H]4CC(C)(C)CC[C@]4(C(=O)OC)CC[C@]32C)[C@@]1(C)CC/C(N)=N/O"
  result: "6.8 µM"
- compound: "CNC(=S)N/N=C(\\C)c1ccc(OC)cc1O"
  result: "> 100 µM"
- compound: "O=C(O/N=C1/CCC/C1=C\\c1ccccc1)c1ccc(Cl)cc1"
  result: "> 100 µM"
- compound: "COc1cc(C)c(N(C)C(=O)CN(C)C)cc1Nc1nc(Nc2cccc(F)c2C(N)=O)c2cc[nH]c2n1"
  result: "> 25 µM"
- compound: "Cn1c(-c2c(N)n(Cc3ccc(Cl)cc3)c3nc(C#N)c(C#N)nc23)nc2ccccc21"
  result: "46.1 µM"
- compound: "CCCNCC(O)/C=C/[Si](C)(C)C (stereo not given) (tested in a mixture with another compound)"
  result: "> 100 µM"
- compound: "C/C(=N/NC(=S)Nc1cccc(Cl)c1)c1cccc(/C(C)=N\\NC(=S)Nc2cccc(Cl)c2)n1"
  result: "> 39.7 µM"
- compound: "COc1ccc(C(=O)N=C2N(c3ccccc3)C(=Nc3ccccc3)C(=Nc3ccccc3)N2c2ccccc2)cc1"
  result: "> 100 µM"
- compound: "C=CC1(C)/C(=N\\O)C(C)(CC)C(=O)N1O (stereo not given)"
  result: "> 100 µM"
- compound: "COc1ccccc1NC(=O)N/C(N)=N/c1nc2ccccc2s1"
  result: "> 100 µM"
- compound: "CC1(C)C2CCC1(C)C(NC(=O)CCN1CCOCC1)C2 (stereo not given)"
  result: "> 100 µM"
- compound: "O=c1[nH]ncc2[nH]c3c(c12)CCCc1ccccc1-3"
  result: "51.7 µM"
- compound: "CCCN(CCC)C(=O)Cc1c2n(c3ccccc13)CCCc1ccccc1-2"
  result: "28.5 µM"

====

In this section we review reported TGI values for a set of compounds.
System: KM12 colon
Assay: NCI tumour cell line growth inhibition, 48 h

- compound: "COc1cc(C)c(N(C)C(=O)CN(C)C)cc1Nc1nc(Nc2cccc(F)c2C(N)=O)c2cc[nH]c2n1"
  result_units: "µM"
  value_modifier: ">"
  TGI: 25
- compound: "O=c1c2ccccc2c(C=NCCNCCO)c2oc3ccccc3n12"
  result_units: "µM"
  value_modifier: "="
  TGI: 22.1
- compound: "CN(C)CCNc1ccc2nnn3c4ccc(Cl)cc4c(=O)c1c23"
  result_units: "µM"
  value_modifier: "="
  TGI: 20.8
- compound: "CNC(=O)OC(C)CN1c2ccccc2Sc2ccccc21 (stereo not given)"
  result_units: "µM"
  value_modifier: ">"
  TGI: 100
- compound: "COC(=O)[C@@H]1C[C@H]2[C@H](c3ccccc3Br)[C@@H](OC(C)=O)[C@@H](OCc3ccccc3)ON2O1"
  result_units: "µM"
  value_modifier: ">"
  TGI: 100

====

Test system: IGROV1 ovarian
Experiment: NCI tumour cell line growth inhibition, 48 h

- compound: "CC(C)(C)c1ccc(NC(=O)c2cc(=O)c3ccccc3[nH]2)c(C(C)(C)C)c1O"
  tested_on: "IGROV1 ovarian"
  result_units: "µM"
  value_modifier: "="
  TGI: 22.7
- compound: "CNNC1=NS(=O)(=O)c2cc(C(=O)OC)c(Cl)cc2S1"
  tested_on: "IGROV1 ovarian"
  result_units: "µM"
  value_modifier: ">"
  TGI: 10
- compound: "CCCC(=O)C(CC)/C(CCC(=O)N(Cc1ccccc1)Cc1ccccc1)=N/NC(=O)C[N+](C)(C)C (stereo not given)"
  tested_on: "IGROV1 ovarian"
  result_units: "µM"
  value_modifier: ">"
  TGI: 100
- compound: "CCC1N2CCCCC2[C@@H]2c3[nH]c4ccccc4c3CCN12 (stereo not given in full)"
  tested_on: "IGROV1 ovarian"
  result_units: "µM"
  value_modifier: ">"
  TGI: 100
- compound: "CCOc1ccc2c(-c3ccnc(Nc4cccc(C(F)(F)F)c4)n3)cnn2n1"
  tested_on: "IGROV1 ovarian"
  result_units: "µM"
  value_modifier: ">"
  TGI: 25
- compound: "Cc1cc(Cl)ccc1OCC(=O)Oc1c(Cl)c(Cl)c(Cl)c(Cl)c1Cl"
  tested_on: "IGROV1 ovarian"
  result_units: "µM"
  value_modifier: "="
  TGI: 79.5
- compound: "O=c1c2ccccc2c(C=NCCNCCO)c2oc3ccccc3n12"
  tested_on: "IGROV1 ovarian"
  result_units: "µM"
  value_modifier: "="
  TGI: 24
- compound: "[O-]c1c(-c2ccccc2)[se]c(-c2ccccc2)[n+]1-c1ccccc1"
  tested_on: "IGROV1 ovarian"
  result_units: "µM"
  value_modifier: "="
  TGI: 13.6
- compound: "CSc1ccc2c(cc1=O)C(NC(=O)c1cc(O)c(OC(=O)O)c(O)c1)CCc1cc(O)c(O)c(O)c1-2 (stereo not given)"
  tested_on: "IGROV1 ovarian"
  result_units: "µM"
  value_modifier: "="
  TGI: 37.7
- compound: "O=c1cc(-c2ccccc2)oc2cc(OCc3cn(Cc4ccc(F)cc4)nn3)cc(O)c12"
  tested_on: "IGROV1 ovarian"
  result_units: "µM"
  value_modifier: ">"
  TGI: 100

====

Tested on: MOLT-4 leukemia
Assay: NCI tumour cell line growth inhibition, 48 h

- compound: "Nc1nc(N)c2ncn(Cc3c(Cl)cccc3Cl)c2n1"
  TGI: "> 100 µM"
- compound: "COc1cc(C)c(N(C)C(=O)CN(C)C)cc1Nc1nc(Nc2cccc(F)c2C(N)=O)c2cc[nH]c2n1"
  TGI: "> 25 µM"
- compound: "Nc1nc(Cl)cc(NCCCCO)n1"
  TGI: "> 100 µM"
- compound: "S=C1SC2(CCCCCC2)NC2=C1CCCCC2"
  TGI: "66.8 µM"
- compound: "CC(C)[C@H](COC(C)(C)C)N=CN1CSc2ccccc21"
  TGI: "> 100 µM"
- compound: "COc1ccc(-c2ccc(=O)oc2-c2cc(OC)c(OC)c(OC)c2)cc1O"
  TGI: "> 100 µM"
- compound: "Cc1cc2cc(Oc3ccnc(Nc4cccc(CS(=O)(=O)NCCN(C)C)c4)n3)ccc2[nH]1"
  TGI: "7.06 µM"
- compound: "COc1cc2c(C#N)n3c(c2cc1OC)C(=O)C(c1ccccc1)Oc1ccccc1-3 (configuration not stated)"
  TGI: "> 100 µM"
- compound: "CC1=CC(=O)c2cccc(O)c2C1=O"
  TGI: "> 28.3 µM"
- compound: "O=C(O)C1(C(=O)O)CCN(S(=O)(=O)c2ccccc2)CC1"
  TGI: "> 100 µM"
- compound: "CC1(Br)C(=O)NC(=O)N([C@H]2C[C@H](O)[C@@H](CO)O2)C1N=[N+]=[N-] (some centres not stated)"
  TGI: "> 100 µM"
- compound: "CCCCNC(=O)C1=C(C)NC(C)=C(C(=O)NCCCC)C1"
  TGI: "> 100 µM"
- compound: "CCN(CC)CC1CCCCN1CC(=O)N1c2ccc(Br)cc2C(=O)Nc2cccnc21 (configuration not stated)"
  TGI: "> 100 µM"
- compound: "COc1ccc2c(CCNS(=O)(=O)c3ccccc3)c(C(C)=O)[nH]c2c1[N+](=O)[O-]"
  TGI: "> 100 µM"
- compound: "Cc1ccccc1N=Nc1ccc(N=Nc2c(O)ccc3cc(S(=O)(=O)O)cc(S(=O)(=O)O)c23)c(C)c1"
  TGI: "> 100 µM"
- compound: "CCOc1ccccc1N=C(NC(=O)CC)SC"
  TGI: "> 100 µM"
- compound: "C1CSCCSS[C@@H]2CCCCC2SC1 (some centres not stated)"
  TGI: "> 100 µM"
- compound: "CCN(CCc1ccc(F)cc1)c1ccc(CO)c(Cl)c1"
  TGI: "50.1 µM"
- compound: "COc1ccc(C(F)(F)F)cc1NC(=O)O/N=C(/Cl)C(C)C"
  TGI: "6.2 µM"
- compound: "C/C(CC(=O)Nc1ccc(C)cc1)=N\\NC(N)=S"
  TGI: "> 100 µM"
- compound: "O=S(O)CCCCSSCCCCS(=O)(O)=S"
  TGI: "> 100 µM"
- compound: "CCCCC/C=C1\\CCC(CN2CCOCC2)C1=O (configuration not stated)"
  TGI: "7.55 µM"
- compound: "COC(=O)c1c(C)cccc1C1CN=NC12Cc1c(C)cccc1C2=O (configuration not stated)"
  TGI: "> 100 µM"
- compound: "O=S(=O)(O)c1cc(O)c2c(O)c(N=Nc3ccc(/C=C/c4ccc(N=Nc5c(S(=O)(=O)O)cc6cc(S(=O)(=O)O)cc(O)c6c5O)cc4S(=O)(=O)O)c(S(=O)(=O)O)c3)c(S(=O)(=O)O)cc2c1"
  TGI: "> 100 µM"
- compound: "Cc1occc1C(=S)Nc1ccc(Cl)c(C(=O)OCC2CC2)c1"
  TGI: "> 100 µM"
- compound: "COc1ccc(Oc2nc3cc(C(F)(F)F)ccc3nc2C(C)C)cc1"
  TGI: "36.9 µM"
- compound: "CC(C)(C)c1ccc(NC(=O)c2cc(=O)c3ccccc3[nH]2)c(C(C)(C)C)c1O"
  TGI: "7.59 µM"
- compound: "CCc1nc2cc(/C=C/C(=O)NO)c(F)cc2c(=O)n1CCc1ccccc1"
  TGI: "> 100 µM"
- compound: "Cc1nc(SCC(=O)Nc2ccccc2)c2sc(=S)n(-c3ccccc3)c2n1"
  TGI: "> 10 µM"
- compound: "[O-]c1c(-c2ccccc2)[se]c(-c2ccccc2)[n+]1-c1ccccc1"
  TGI: "92.9 µM"
- compound: "CC(=O)OC1C(O)COC(Oc2c(C)c3c4c(c2O)[C@@H](C)CC[C@@H]4[C@@H](C)C[C@H]3C=C(C)C)C1O (some centres not stated)"
  TGI: "28.5 µM"
- compound: "C=C(Cl)C(Br)(CCl)CCC(Cl)C(C)C (configuration not stated) (tested in a mixture with another compound)"
  TGI: "48 µM"
- compound: "C=C(C)[C@@H]1CC[C@]2(c3ncc(C)o3)CC[C@]3(C)[C@H](CC[C@@H]4[C@@](C)(CCC#N)[C@H](C(=C)C)CC[C@]43C)[C@@H]12"
  TGI: "9.82 µM"
- compound: "C[C@@H]1O[C@@H]2OCC[C@@H]2C2=C1C(=O)c1ccccc1C2=O"
  TGI: "> 100 µM"
- compound: "CCC(=O)NCC1(c2c[nH]c3ccccc23)SCCS1"
  TGI: "> 100 µM"
- compound: "O=C(Oc1ccccc1Cl)c1cccnc1Nc1ccnc(C(F)(F)F)c1"
  TGI: "8.97 µM"
- compound: "O=C(Nc1ccccc1)N1CC(CN2CCN(c3ccccc3)CC2)OC1=O (configuration not stated)"
  TGI: "> 100 µM"
- compound: "O=C(c1cccs1)N(C(=S)OCc1ccccn1)c1ccccc1"
  TGI: "> 100 µM"
- compound: "Oc1ccc2ccccc2c1N=Nc1ccc(N=Nc2ccccc2)cc1"
  TGI: "> 100 µM"
- compound: "CN(C)CCNc1ccc2nnn3c4ccc(Cl)cc4c(=O)c1c23"
  TGI: "13.3 µM"
- compound: "CC[O+]=c1cccc2ssnc1-2"
  TGI: "> 100 µM"
- compound: "Cc1ccc2nc(NC(=O)CSC(=S)N3CCN(Cc4ccccc4)CC3)sc2c1"
  TGI: "> 100 µM"
